- Tested on: HCT-15 colon
- assay name: NCI tumour cell line growth inhibition, 48 h
Kindly supply the reported TGI values for the records listed here.
Express the result in µM but write the number alone.

For reference, reported TGI for COc1ccccc1/C=C/C(=O)/C=C/c1ccccc1OC stands at 10.5

For reference, reported TGI for COc1cc(/C=C(\OC(C)=O)c2ccc3c(c2)OCO3)cc(OC)c1OC stands at 36.9

For reference, reported TGI for CS(=O)(=O)OCCN(CCOS(C)(=O)=O)c1ccc(C=O)cc1 stands at 47.4

For reference, reported TGI for CCOC(=O)Cn1c(=O)c2cc(-c3ccccc3)cc3c(Cl)nc4c(OC)c(OC)cc1c4c32 stands at 32.2

For reference, reported TGI for Clc1nc(Cl)c(CBr)c(Cl)n1 stands at 7.91

For reference, reported TGI for c1ccc(COC2(OCc3ccccc3)CC3OC2C2NN=NC32)cc1 (stereo not drawn) stands at 90.6

For reference, reported TGI for O=C(Nc1cccc(-n2cc(-c3ccncc3)c(-c3ccc(O)c(Cl)c3)n2)c1)Nc1cccc(C(F)(F)F)c1 stands at 10.2

For reference, reported TGI for CCN(CC)CCCC(C)NC(=O)c1ccc2c(c1)C(=O)c1ccccc1C2=O (stereo not drawn) stands at 40

====

Kindly supply the reported GI50 values for the records listed here.
- Test system: HS 578T breast
- assay name: NCI tumour cell line growth inhibition, 48 h

For reference, reported GI50 for CCCN(CCSSCCNc1nc(N(C)O)nc(N(C)O)n1)c1nc(N(C)O)nc(N(C)O)n1 stands at 25500 nM

For reference, reported GI50 for O=C(Nc1ccccc1)Nc1cccc(Oc2nnc(Cl)c3ccccc23)c1 stands at 2120 nM

For reference, reported GI50 for COc1ccc2c(c1)/C(=N/OC(C)=O)c1c-2c(=O)[nH]c2ccccc12 stands at 8880 nM

For reference, reported GI50 for CCNCCCn1c2c(c3ccc([N+](=O)[O-])cc3c1=O)C(=O)c1cc(OC)cnc1-2 stands at 1050 nM

For reference, reported GI50 for Cn1c(=O)c(Oc2ccccc2)cc2cnc(NC3CCOCC3)nc21 stands at > 25000 nM

For reference, reported GI50 for O=C(COc1cccc(/C=C2\CSc3ccccc3C2=O)c1)c1ccc(Cl)cc1 stands at 2740 nM

For reference, reported GI50 for Oc1ccc(C#CCOc2ccccc2)cc1CNCCN(Cc1ccccn1)Cc1ccccn1 stands at 1690 nM

For reference, reported GI50 for CNCCCNCCCN1C(=O)c2ccc3c4c(ccc(c24)C1=O)C(=O)N(CCCNCc1ccccc1OC)C3=O stands at 3020 nM

For reference, reported GI50 for C=C1C(=O)O[C@H]2[C@H]1CC/C(COC(=O)c1ccccc1)=C\CC[C@@]1(C)O[C@@H]21 stands at 2560 nM

For reference, reported GI50 for COc1cc(/C=C2\C(=O)Nc3cccc(Cl)c32)cc(OC)c1OC stands at > 100000 nM

For reference, reported GI50 for COc1ccccc1/C=C/C(=O)/C=C/c1ccccc1OC stands at 3400 nM

====

- Tested on: HCT-116 colon
- assay name: NCI tumour cell line growth inhibition, 48 h
measure: GI50

Form field GI50 for item COc1ccc2c(c1)/C(=C/c1cc(OC)c(OC)c(OC)c1)C(=O)N2C on HCT-116 colon: 2.56 µM

Form field GI50 for item Cc1ccc(Sc2sc(-c3ccccc3)nc2[P+](c2ccccc2)(c2ccccc2)c2ccccc2)cc1 on HCT-116 colon: 0.246 µM

Form field GI50 for item CCCN(CCSSCCNc1nc(N(C)O)nc(N(C)O)n1)c1nc(N(C)O)nc(N(C)O)n1 on HCT-116 colon: 3.97 µM

Form field GI50 for item COc1cc(/C=C2\C(=O)Nc3cccc(Cl)c32)cc(OC)c1OC on HCT-116 colon: > 100 µM

Form field GI50 for item Cc1cc2cn3c4cccnc4[nH]c(=O)c3c2cc1C on HCT-116 colon: 1.45 µM

Form field GI50 for item O=C1NN(c2ccccc2)C(=O)/C1=C/c1ccc(Br)o1 on HCT-116 colon: 11.4 µM

Form field GI50 for item OCc1ccc(N(CCN2CCCC2)Cc2ccc(F)cc2)cc1Cl on HCT-116 colon: 13.4 µM

Form field GI50 for item COC1=C(Br)C(=O)C2=C(C1=O)C1C3=C(C(=O)C=CC3=O)C2c2ccccc21 (configuration not stated) on HCT-116 colon: 5.91 µM

Form field GI50 for item N#Cc1c(N)nc(N2CCOCC2)c(C#N)c1-c1ccccc1Cl on HCT-116 colon: 74.7 µM

Form field GI50 for item C=C1C(=O)O[C@H]2[C@H]1CC/C(Cn1cc(-c3cc(C)c(C)cc3C)nn1)=C\CC[C@@]1(C)O[C@@H]21 on HCT-116 colon: 0.336 µM

Form field GI50 for item NC(=O)c1ccc2nc3c(n2c1)C(=O)C(=O)c1ccccc1-3 on HCT-116 colon: 0.327 µM

Form field GI50 for item Cn1c(=O)c(Oc2ccccc2)cc2cnc(NC3CCOCC3)nc21 on HCT-116 colon: > 25 µM

All figures here come from PubChem BioAssay (NCI).
